In this section we review reported Plant response rating, Barley, Winter values for a set of compounds.
test system: barley, winter; assay: Test D pre-/postemergence herbicide test; type: in vivo, Hordeum vulgare; conditions: Preemergence, 62 g ai/ha; scale 0 to 100 (0 no effect, 100 complete control)

Notebook: O=C1NCC(c2ccc(C(F)(F)F)cc2)C1C(=O)Nc1ccccc1F (centres unmarked) , Plant response rating, Barley, Winter read as 0

Record O=C1NCC(c2ccc(C(F)(F)F)cc2)C1C(=O)Nc1cccc(F)c1F (centres unmarked) [Compound 80] , field Plant response rating, Barley, Winter: 5

Field Plant response rating, Barley, Winter (entry O=C1NCC(c2ccc(F)c(C(F)(F)F)c2)C1C(=O)Nc1cccc(F)c1F (racemic) ) reads 0

Memo: O=C1NCC(c2ccc(C(F)(F)F)cc2)C1C(=O)Nc1cccc(F)c1F (racemic) [Compound 202] , reported Plant response rating, Barley, Winter: 20

The reported Plant response rating, Barley, Winter of the compound O=C1NCC(c2ccc(Cl)c(F)c2)C1C(=O)Nc1cccc(F)c1F (centres unmarked) was 0
